# Test system: human platelets
# ASSAY_INFO: Inhibition of agonist-induced aggregation of washed human platelets (aggregometer)
# Format: cell-based
# Set-up: key: "+" indicates inhibition of platelet aggregation; "-" indicates the absence of inhibition of platelet aggregation; "partial" indicates a partial inhibition of platelet aggregation
# TEST_CONTEXT: agonist collagen 4 ug/ml; inhibitor peptide 0.8 nm; 37° C.
# Description: Platelet-rich plasma was prepared by differential centrifugation (120×g, 30 min, 23° C.) of fresh whole human blood drawn into acid/citrate/dextrose (citric acid 0.079 M, sodium citrate, 0.085 M and dextrose 0.180 M) in a ratio of 1 ml of anticoagulant solution per 9 ml of blood. The platelets were washed and their suspensions prepared by a modification of the method of Mustard, et al., Brit. J. Haemat. 22, 193-204 (1972). […]
* marks the point of attachment. Npys = O=[N+]([O-])c1cccnc1S*
REPORTED_ENDPOINT: Inhibition of platelet aggregation, Collagen

TFA.H-Ala-Gln-Val-Val-CYs (NpyS)-GlY-NH2 (H-AQVV-{Cys(NpyS)-Gly-NH2}; also: TFA salt) [Example 4]
+
TFA.H-Phe-Gln-Val-Val-Cys(NpyS)-Gly-NH2 (H-FQVVC(Npys)G-NH2; also: TFA salt) [Example 1]
-
TFA.H-Gln-Val-Val-Cys(NpyS)-Gly-NH2 (H-QVVC(Npys)G-NH2; also: TFA salt) [Example 5]
+
TFA.H-Arg-Gln-Val-Val-Cys(NPYS)-GlY-NH2 (H-RQVVC(Npys)G-NH2; also: TFA salt) [Example 3]
+

====

# Tested on: human platelets
# ASSAY_INFO: Inhibition of agonist-induced aggregation of washed human platelets (aggregometer)
# Format: cell-based
# Set-up: key: "+" indicates inhibition of platelet aggregation; "-" indicates the absence of inhibition of platelet aggregation; "partial" indicates a partial inhibition of platelet aggregation
# TEST_CONTEXT: agonist A23187 2.5 uM; inhibitor peptide 0.8 nm; 37° C.
* marks the point of attachment. Npys = O=[N+]([O-])c1cccnc1S*
REPORTED_ENDPOINT: Inhibition of platelet aggregation, A23187

The cases that follow already have their Inhibition of platelet aggregation, A23187 on record.
TFA.H-Phe-Gln-Leu-Val-Cys(NpyS)-Gly-NH2 (H-FQLVC(Npys)G-NH2; also: TFA salt) [Example 2]
partial
TFA.H-Ala-Gln-Val-Val-CYs (NpyS)-GlY-NH2 (H-AQVV-{Cys(NpyS)-Gly-NH2}; also: TFA salt) [Example 4]
partial
TFA.H-Arg-Gln-Val-Val-Cys(NPYS)-GlY-NH2 (H-RQVVC(Npys)G-NH2; also: TFA salt) [Example 3]
partial
TFA.H-Gln-Val-Val-Cys(NpyS)-Gly-NH2 (H-QVVC(Npys)G-NH2; also: TFA salt) [Example 5]
partial

Could you now look at the following substance, please?
### Prompt Dear colleague, I am looking for the recorded Inhibition of platelet aggregation, A23187 of the following substance: TFA.H-Phe-Gln-Val-Val-Cys(NpyS)-Gly-NH2 (H-FQVVC(Npys)G-NH2; also: TFA salt) [Example 1]
### Response -

====

# Test system: calpain
# ASSAY_INFO: Calpain inhibition, fluorogenic substrate succinyl-Leu-Tyr-amino-4-methylcumarin
# Format: biochemical
# TEST_CONTEXT: 90 mM calpain; 1 mM substrate; 25° C.; pH 7.5; 5 mM CaCl2; read-out: Calpain Inhibitory Potency IC50
* marks the point of attachment. Npys = O=[N+]([O-])c1cccnc1S*
Reported pIC50 values follow for various substances
Interpret pIC50 as the negative base-10 log of the concentration measured in mol/L.

TFA.H-Gln-Val-Val-Cys(NpyS)-Gly-NH2 (H-QVVC(Npys)G-NH2; also: TFA salt) [Example 5]
4.44
TFA.H-Arg-Gln-Val-Val-Cys(NPYS)-GlY-NH2 (H-RQVVC(Npys)G-NH2; also: TFA salt) [Example 3]
4.26
TFA.H-Phe-Gln-Leu-Val-Cys(NpyS)-Gly-NH2 (H-FQLVC(Npys)G-NH2; also: TFA salt) [Example 2]
5.25
TFA.H-Ala-Gln-Val-Val-CYs (NpyS)-GlY-NH2 (H-AQVV-{Cys(NpyS)-Gly-NH2}; also: TFA salt) [Example 4]
4.80

Pending substance:
### Prompt Given the entry TFA.H-Phe-Gln-Val-Val-Cys(NpyS)-Gly-NH2 (H-FQVVC(Npys)G-NH2; also: TFA salt) [Example 1] , report its measured pIC50.
### Response 5.39
